# Tested on: Trypanosoma brucei brucei
# RUN DESCRIPTION: Antitrypanosomal activity against Trypanosoma brucei brucei
# Assay type: functional, organism-based
pEC50: −log10 of the molar value.
OBSERVED PROPERTY: pEC50

INSERT INTO results (smiles_text, recorded_value) VALUES
  ('COc1ccc(C2=NN(C3CCCCCC3)C(=O)[C@H]3CC=CC[C@@H]23)cc1OCCCCOc1ccc(-c2nn[nH]n2)cc1', 7.10);

====

Attribute: inhibition
# TARGET OF ASSAY: UniProt:Q8WQX9
# Sequence (Q8WQX9 as listed by the source): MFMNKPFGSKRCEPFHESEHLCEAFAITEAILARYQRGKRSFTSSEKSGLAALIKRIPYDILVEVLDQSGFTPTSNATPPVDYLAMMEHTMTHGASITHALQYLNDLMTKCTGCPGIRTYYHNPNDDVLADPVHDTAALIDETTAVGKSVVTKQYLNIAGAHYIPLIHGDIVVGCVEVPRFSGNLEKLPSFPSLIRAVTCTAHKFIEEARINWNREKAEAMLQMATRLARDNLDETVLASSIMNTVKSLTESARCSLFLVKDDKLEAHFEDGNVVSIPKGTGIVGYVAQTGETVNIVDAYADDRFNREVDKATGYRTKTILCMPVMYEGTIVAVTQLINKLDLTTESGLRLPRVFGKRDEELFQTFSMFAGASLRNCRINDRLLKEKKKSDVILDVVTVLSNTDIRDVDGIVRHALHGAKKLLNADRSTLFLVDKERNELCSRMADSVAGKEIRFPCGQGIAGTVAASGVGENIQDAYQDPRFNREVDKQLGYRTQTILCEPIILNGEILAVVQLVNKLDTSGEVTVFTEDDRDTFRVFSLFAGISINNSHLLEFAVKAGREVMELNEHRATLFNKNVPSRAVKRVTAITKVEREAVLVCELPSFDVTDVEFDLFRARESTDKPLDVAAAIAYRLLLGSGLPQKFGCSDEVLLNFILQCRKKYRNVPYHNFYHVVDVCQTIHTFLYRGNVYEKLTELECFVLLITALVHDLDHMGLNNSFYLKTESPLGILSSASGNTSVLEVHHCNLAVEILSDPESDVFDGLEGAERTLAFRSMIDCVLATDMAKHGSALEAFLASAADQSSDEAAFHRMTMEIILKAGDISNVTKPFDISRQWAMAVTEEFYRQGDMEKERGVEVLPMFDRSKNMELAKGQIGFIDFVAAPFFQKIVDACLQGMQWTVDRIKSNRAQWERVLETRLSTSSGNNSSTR
# RUN DESCRIPTION: Inhibition of Trypanosoma brucei recombinant PDEB1 at 10 uM by spectrophotometric analysis relative to control
OBSERVED PROPERTY: inhibition (%)

INSERT INTO measurements (smiles_text, observed_property, measurement_unit, recorded_value) VALUES
  ('COc1ccc(-c2ccnc(NC3CCC3)n2)cc1OC1CCCC1', 'inhibition', '%', 3.9),
  ('COc1ccc(-c2ccnc(NC3CCC3)n2)cc1OCc1ccccc1', 'inhibition', '%', 16.1),
  ('COc1ccc(-c2ccnc(N(C)C)c2)cc1OCc1ccccc1', 'inhibition', '%', 48),
  ('COc1ccc(-c2ccnc(NC3CCCCC3)n2)cc1OC1CCCC1', 'inhibition', '%', 29.8),
  ('COc1ccc(-c2ccnc(NC3CCCC3)n2)cc1OC1CCCC1', 'inhibition', '%', 12.7),
  ('COc1ccc(-c2ccc(OC)c(OC3CCCC3)c2)cn1', 'inhibition', '%', 7.6);
